Taken from ChEMBL document CHEMBL1201862.

Test system: OVCAR-8
Assay: NCI tumour cell line growth inhibition, 48 h
Activity calls are given as the source filed them. Rule as the data show it: active = GI50 up to about 1.1 µM and inactive = higher. Non-standard residues stand in square brackets, D forms with d. Residues, ends and D or L forms follow the SMILES beside them. *: point of attachment. Ac5c = NC1(C(=O)O)CCCC1; Boc = CC(C)(C)OC(=O)*; tBu = CC(C)(C)*
compounds and their reported GI50
property_name: GI50

compound	target	measured_value
CCC1=CCC23C(=O)C=CC(=O)C2(C1)C(=O)c1cccc(OC)c1C3=O (centres undefined)	OVCAR-8	15.2 µM (inactive)
COc1cc(CNC(=O)CCCCCCCCCCSC#N)ccc1O	OVCAR-8	18.5 µM (inactive)
COc1ccc(NCC#N)cc1	OVCAR-8	> 100 µM (inactive)
CC(=O)O[C@H](C[C@@H](C)[C@H]1C(=O)[C@H](O)[C@@]2(C)C3CC[C@H]4C(C)(C)[C@@H](OC5OCC(O)C(O)C5O)CC[C@@]45C[C@@]35CC[C@]12C)[C@@H]1OC1(C)C (some centres undefined)	OVCAR-8	20.2 µM (inactive)
Nc1ccn(C2C=C(CO)C(O)C2O)c(=O)c1 (centres undefined)	OVCAR-8	> 625 µM (inactive)
CC(C)CNC(=O)CCc1cccc2c1oc1c(CCN)cccc12	OVCAR-8	18.1 µM (inactive)
CC1=NN(c2nc(N)nc(CS(C)(=O)=O)n2)C(C)(C)C1	OVCAR-8	> 100 µM (inactive)
Cn1cc2c(n1)c(N/N=C/c1ccccc1)nn1nnnc21	OVCAR-8	> 100 µM (inactive)
COc1cccc(C2c3cc4c(cc3OC(C)(O)C2C)OCO4)c1O (centres undefined)	OVCAR-8	4.94 µM (inactive)
CC(OC(C)(C)C)C1NC(=O)C(CCCCNC(=O)OC(C)(C)C)NC(=O)C(Cc2c[nH]c3ccccc23)NC(=O)C(Cc2ccccc2)NC(=O)C2(CCCC2)NC(=O)C(Cc2ccccc2)NC1=O (centres undefined) (cyclo([Ac5c]FWK(Boc)T(tBu)F); configuration not given here)	OVCAR-8	50.2 µM (inactive)
N=C(N)NS(=O)(=O)c1ccc(NC(=O)c2cccc3c(NNc4ccc(S(N)(=O)=O)cc4)c4ccccc4nc23)cc1	OVCAR-8	66.1 µM (inactive)
O=c1[nH]c(=O)n2n1C1C=CC2CC1	OVCAR-8	> 100 µM (inactive)
CN(C)CCNS(=O)(=O)c1ccc(N)cc1	OVCAR-8	> 100 µM (inactive)
N#Cc1nn(C2OC(COC(=O)c3ccccc3)C(OC(=O)c3ccccc3)C2OC(=O)c2ccccc2)c2nc[nH]c(=O)c12 (centres undefined)	OVCAR-8	27.8 µM (inactive)
N=C(N)NS(=O)(=O)c1ccc(NNc2c3ccccc3nc3c(C(=O)Nc4ccc(S(N)(=O)=O)cc4)cccc23)cc1	OVCAR-8	36.1 µM (inactive)
C=C1[C@@H]([C@@]2(C)C=CC(=O)C(C)(C)[C@@H]2CC(=O)OC)CC[C@@]2(C)[C@H](c3ccoc3)OC(=O)[C@H]3O[C@]132	OVCAR-8	> 100 µM (inactive)
O=C(O)C12CC3(C(=O)O)CC(C(=O)O)(CC(C(=O)O)(C1)C3=O)C2=O	OVCAR-8	> 100 µM (inactive)
CCCCC#COP(=O)(OCC)OCC	OVCAR-8	> 100 µM (inactive)
O=C(/C=N/c1ccccc1C(=O)[O-])c1cccs1.O=C(/C=N/c1ccccc1C(=O)[O-])c1cccs1.[Zn+2]	OVCAR-8	36.1 µM (inactive)
